Tested on: NCI-H522 lung
protocol text: NCI-60 one-dose screen, 48 h (100 = growth as untreated, 0 = no growth, -100 = all killed)
condition set: 10 µM unless noted
The panel holds about 83,000 compounds, 20% with a hit somewhere; the sample as a whole holds those more often.
assay endpoint: growth (%)
Only the number, expressed in %, is required.

compound	test target	assay endpoint	quantitative result
COC(=O)[C@@H](C)C[C@H](Cc1ccccc1)NC(=O)c1csc(CC[C@H](C(C)C)N(C)C(=O)[C@@H](NC(=O)[C@H]2CCCCN2C)C(C)C)n1	NCI-H522 lung	growth	-12.9

In: Item CC(=O)O[C@@H]1CC[C@]2(C)[C@H]3CC[C@]4(C)C(=O)CC[C@H]4[C@@H]3C[C@@H]3SC(N)=N[C@@]32C1 : provide growth
Out: 8.26

In: Item COc1cc(C=Nc2cc(Cl)cc(Cl)c2)ccc1N(CCCl)CCCl : provide growth
Out: -84.3

In: Item CC12CC(=O)C3(SC#N)C(CCC4=CC(=O)CCC43C)C1CCC2=O (stereo not drawn) : provide growth
Out: -3.58
